Reported Ki values follow for various compounds
# target.under.test: human IL-23R (Homo sapiens)
# Construct: UniProtKB—Q5VWK5, amino acids 22-629; secretion signal of the plasmid (Promega N1371); expressed in transfected cells
# method.description: Binding assay (NanoBRET displacement of fluorophore-labelled reference compound) for estimating binding affinity to human IL-23R
# reported.conditions: Table 3-1; read-out: Ki hIL-23R
*1 amine or outer side, *2 acyl side, *3 side chain or, on linkers, in order; H or OH if unused. Where a SMILES comes first, the peptide text is derived from it. Bridges are numbered along the chain shown (N, C = ends). [ ]: non-standard residue; d: D form. Phe(4-NH2) = Nc1ccc(C[C@H](N)C(=O)O)cc1; 2Nal = N[C@@H](Cc1ccc2ccccc2c1)C(=O)O; AEF = NCCOc1ccc(C[C@H](N)C(=O)O)cc1; X1 = O=C(Cc1ccc(CN[*:1])cc1)[*:2]; 4Pal = N[C@@H](Cc1ccncc1)C(=O)O; αMeL = CC(C)C[C@](C)(N)C(=O)O; CH2COCH2 = O=C(C[*:1])C[*:2]; 3Amb = NCc1cccc(C(=O)O)c1
Respond numerically; units are nM and should not be typed.

Some compounds with recorded Ki:
IN: # returns recorded Ki (system: human IL-23R (Homo sapiens)) for CC(C)C[C@H]1NC(=O)[C@H](Cc2ccc3ccccc3c2)NC(=O)[C@H](Cc2ccc(OCCN)cc2)NC(=O)[C@@H]2CSCC(=O)CSC[C@H](NC(=O)[C@H](CO)NC(=O)c3cccc(c3)CNC(=O)CC[C@@H](C(=O)N[C@@H](Cc3ccc(O)cc3)C(N)=O)NC1=O)C(=O)N[C@@H](Cc1c[nH]c3ccccc13)C(=O)N[C@@H](CCC(N)=O)C(=O)N2 [Compound 46] ([3Amb]SCWQC[AEF][2Nal][dL]EY-NH2; linker 3-6 via CH2COCH2; lactam N-10)
OUT: 48.2

IN: Which measured Ki belongs to CC(C)C[C@]1(C)NC(=O)[C@H](Cc2ccc3ccccc3c2)NC(=O)[C@H](Cc2ccc(OCCN)cc2)NC(=O)[C@@H]2CSCC(=O)CSC[C@H](NC(=O)[C@H](CO)NC(=O)Cc3ccc(cc3)CNC(=O)CC[C@@H](C(=O)N[C@H](CCCNC(=N)N)C(=O)O)NC1=O)C(=O)N[C@@H](Cc1c[nH]c3ccccc13)C(=O)N[C@@H](CCC(N)=O)C(=O)N2 [Compound 108] ([X1]SCWQC[AEF][2Nal][αMeL]E[dR]-OH; linker 3-6 via CH2COCH2; lactam N-10) , tested on human IL-23R (Homo sapiens)?
OUT: 0.0995

IN: GET /values?readout=Ki&system=human IL-23R (Homo sapiens)&item= CC(C)C[C@]1(C)NC(=O)[C@H](Cc2ccc3ccccc3c2)NC(=O)[C@H](Cc2ccc(OCCN)cc2)NC(=O)[C@@H]2CCC(=O)NCC[C@H](NC(=O)[C@H](CO)NC(=O)Cc3ccc(cc3)CNC(=O)CC[C@@H](C(=O)N[C@@H](CCN)C(=O)N[C@@H](Cc3cccnc3)C(N)=O)NC1=O)C(=O)N[C@@H](Cc1c[nH]c3ccccc13)C(=O)N[C@@H](CCC(N)=O)C(=O)N2 (relative stereo) [Compound 123]
OUT: 0.00783

New cases:
IN: Entry CC(C)C[C@]1(C)NC(=O)[C@H](Cc2ccc3ccccc3c2)NC(=O)[C@H](Cc2ccc(OCCN)cc2)NC(=O)[C@@H]2CSCC(=O)CSC[C@H](NC(=O)[C@H](CO)NC(=O)c3cccc(c3)CNC(=O)CC[C@@H](C(=O)N[C@@H](CCCNC(=N)N)C(=O)N[C@@H](Cc3ccncc3)C(N)=O)NC1=O)C(=O)N[C@@H](Cc1c[nH]c3ccccc13)C(=O)N[C@@H](CCC(N)=O)C(=O)N2 [Compound 79] ([3Amb]SCWQC[AEF][2Nal][αMeL]ER[4Pal]-NH2; linker 3-6 via CH2COCH2; lactam N-10) , system human IL-23R (Homo sapiens): what Ki was measured?
OUT: 2.09

IN: Param readout = Ki; param system = human IL-23R (Homo sapiens); param query = CC(C)C[C@]1(C)NC(=O)[C@H](Cc2ccc3ccccc3c2)NC(=O)[C@H](Cc2ccc(OCCN)cc2)NC(=O)[C@@H]2CSCC(=O)CSC[C@H](NC(=O)[C@H](CO)NC(=O)c3cccc(c3)CNC(=O)CC[C@@H](C(=O)N[C@@H](Cc3ccc(N)cc3)C(N)=O)NC1=O)C(=O)N[C@@H](Cc1c[nH]c3ccccc13)C(=O)N[C@@H](CCC(N)=O)C(=O)N2 [Compound 45] ([3Amb]SCWQC[AEF][2Nal][αMeL]E[Phe(4-NH2)]-NH2; linker 3-6 via CH2COCH2; lactam N-10) ; response: value
OUT: 12
